The measured values listed here are drawn from paper PMC9964544.

- tgt: Human PTP1B (Homo sapiens)
- Sequence (P18031 1-302): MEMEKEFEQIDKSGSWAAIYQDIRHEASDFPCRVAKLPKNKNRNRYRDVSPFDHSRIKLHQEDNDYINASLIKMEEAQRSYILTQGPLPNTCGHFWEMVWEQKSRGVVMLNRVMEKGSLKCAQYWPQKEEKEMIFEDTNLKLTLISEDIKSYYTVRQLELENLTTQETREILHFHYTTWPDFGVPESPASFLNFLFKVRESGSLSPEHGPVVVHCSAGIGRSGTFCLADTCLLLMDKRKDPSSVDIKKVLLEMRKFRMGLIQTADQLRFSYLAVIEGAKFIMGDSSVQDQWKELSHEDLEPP
- protocolDescription: Kinetic analysis of PTP1B inhibition (Lineweaver-Burk plot, KM,app fit, dilution assay)
- experimentalContext: KiA PTP1B (first inhibitor molecule), fit of KM,app against avarone concentration, Equation (3)

| smilesData | Ki |
| --- | --- |
| CC1=CCC[C@H]2[C@](C)(CC3=CC(=O)C=CC3=O)[C@@H](C)CC[C@]12C | 15.1 µM |

====

- tgt: TC-PTP (Homo sapiens, UniProt P17706)
- Sequence (P17706 whole entry, species assumed): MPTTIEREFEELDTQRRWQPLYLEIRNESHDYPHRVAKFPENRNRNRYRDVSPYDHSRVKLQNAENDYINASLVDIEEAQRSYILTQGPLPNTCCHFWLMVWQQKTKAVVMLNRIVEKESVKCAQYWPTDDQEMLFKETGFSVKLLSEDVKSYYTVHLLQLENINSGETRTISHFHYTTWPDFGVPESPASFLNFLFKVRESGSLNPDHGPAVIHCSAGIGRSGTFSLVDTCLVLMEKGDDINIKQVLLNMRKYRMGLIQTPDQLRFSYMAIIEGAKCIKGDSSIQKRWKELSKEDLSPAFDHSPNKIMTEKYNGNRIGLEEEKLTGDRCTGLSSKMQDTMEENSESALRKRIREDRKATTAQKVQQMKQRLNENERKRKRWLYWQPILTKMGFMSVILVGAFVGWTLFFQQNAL
pIC50: −log10 of the molar value.

| smilesData | pIC50 |
| --- | --- |
| CC1=CCC[C@H]2[C@](C)(CC3=CC(=O)C=CC3=O)[C@@H](C)CC[C@]12C | 4.41 |

====

- tgt: Human PTP1B (Homo sapiens)
- protocolDescription: PTP1B inhibition assay with pNPP as substrate (IC50)
- Type: biochemical
- Parameters: polyHis (N); made in house
- experimentalContext: 2.5 mM pNPP, 37 °C; IC50 ± SD
pIC50: −log10 of the molar value.
Measured pIC50 accompanies every entry in the list below.

| smilesData | tgt | pIC50 |
| --- | --- | --- |
| CC1=CCC[C@H]2[C@](C)(Cc3cc(O)ccc3O)[C@@H](C)CC[C@]12C | Human PTP1B (Homo sapiens) | 4.37 |
| CNC1=CC(=O)C(C[C@]2(C)[C@@H](C)CC[C@]3(C)C(C)=CCC[C@@H]23)=CC1=O | Human PTP1B (Homo sapiens) | 4.67 |
| CC1=CCC[C@H]2[C@](C)(CC3=CC(=O)C=CC3=O)[C@@H](C)CC[C@]12C | Human PTP1B (Homo sapiens) | 5.17 |
| CNC1=CC(=O)C=C(C[C@]2(C)[C@@H](C)CC[C@]3(C)C(C)=CCC[C@@H]23)C1=O | Human PTP1B (Homo sapiens) | 4.82 |
